# key: entry, value: IC50
Biological target: Muscarinic acetylcholine receptor M2 (Homo sapiens)
Sequence (P08172 whole entry): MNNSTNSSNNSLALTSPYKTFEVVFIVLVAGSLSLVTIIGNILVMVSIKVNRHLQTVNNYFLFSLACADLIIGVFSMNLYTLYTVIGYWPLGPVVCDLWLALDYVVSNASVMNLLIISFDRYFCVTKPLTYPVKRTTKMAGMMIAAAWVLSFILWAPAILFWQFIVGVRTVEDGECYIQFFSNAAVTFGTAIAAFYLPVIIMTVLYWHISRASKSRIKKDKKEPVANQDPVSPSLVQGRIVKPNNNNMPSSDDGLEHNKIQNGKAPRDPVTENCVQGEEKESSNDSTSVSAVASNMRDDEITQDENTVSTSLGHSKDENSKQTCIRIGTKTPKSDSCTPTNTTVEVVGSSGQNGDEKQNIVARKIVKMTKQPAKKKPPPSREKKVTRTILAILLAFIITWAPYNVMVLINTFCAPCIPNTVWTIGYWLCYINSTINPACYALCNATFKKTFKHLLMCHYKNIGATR
Assay: Displacement of [3H]NMS from human muscarinic M2 receptor expressed in CHOK1 cells by microplate scintillation counting
ENDPOINT: IC50 (nM)

CHEMICAL_STRUCTURE	UNIT_SPEC	RESULT_VALUE
CC1(C(=O)O[C@H]2C[N+]3(CCCOc4ccccc4)CCC2CC3)c2ccccc2-c2ccccc21.[Br-]	nM	2.1
O=C(O[C@H]1C[N+]2(CCCOc3ccccc3)CCC1CC2)C(O)(c1ccsc1)c1ccsc1.[Br-]	nM	0.18
O=C(O[C@H]1C[N+]2(CCCOc3ccccc3)CCC1CC2)C1(O)c2ccccc2Oc2ccccc21.[Br-]	nM	0.36
O=C(O[C@H]1C[N+]2(CCCOc3ccccc3)CCC1CC2)[C@](O)(c1ccccc1)c1cccs1.[Br-]	nM	0.31
